Data credit: PubChem BioAssay AID1918995

System: 324938-238-R-J1-PDC complex spheroid growth, % test/control
PROCEDURE TEXT: Anticancer human tumor 324938-238-R-J1-PDC patient-derived bladder carcinoma cell line growth inhibition [AhR]
RUN PARAMETERS: second compound 10 µM; first compound 0.003 µM; stronger effect = lower value
ENDPOINT: viability, T/C (%)
Give bare numbers, in %.

COMPOUND: CCc1c2c(nc3ccc(O)cc13)-c1cc3c(c(=O)n1C2)COC(=O)[C@]3(O)CC + Cc1ccccc1N=Nc1ccc(NC(=O)c2ccnn2C)c(C)c1
ENDPOINT: viability, T/C
RESULT VALUE: 46

Please go through the list and note viability, T/C for each compound.
1. CCc1c2c(nc3ccc(O)cc13)-c1cc3c(c(=O)n1C2)COC(=O)[C@]3(O)CC + Cc1cncc(-c2nc(NCCc3c[nH]c4ccccc34)c3ncn(C(C)C)c3n2)c1
2. CC(C)CC(NC(=O)C(Cc1ccccc1)NC(=O)c1cnccn1)B(O)O (stereo unspecified) + CC(CO)NC(=O)c1cc(-c2ccc(Cl)cc2)nn(-c2cnn(C)c2)c1=O
3. Nc1ncn(C2CC(O)C(CO)S2)c(=O)n1 (stereo unspecified) + Cc1cncc(-c2nc(NCCc3c[nH]c4ccccc34)c3ncn(C(C)C)c3n2)c1
4. Nc1ncn(C2CC(O)C(CO)S2)c(=O)n1 (stereo unspecified) + Cc1ccccc1N=Nc1ccc(NC(=O)c2ccnn2C)c(C)c1
5. CC(C)CC(NC(=O)C(Cc1ccccc1)NC(=O)c1cnccn1)B(O)O (stereo unspecified) + Cc1ccccc1N=Nc1ccc(NC(=O)c2ccnn2C)c(C)c1

-- reply
3.5
14.8
16.9
71.4
76.1

###

Test system: 324938-238-R-J1-PDC complex spheroid growth, % test/control
PROCEDURE TEXT: Anticancer human tumor 324938-238-R-J1-PDC cell line growth inhibition [AhR];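 further: spheroids exposed to agents for seven days before viability read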
RUN PARAMETERS: second compound 10 µM; first compound 1 µM; stronger effect = lower value
Hi there, I'd appreciate the recorded viability, T/C for every entry that follows.
Give bare numbers, in %.

Recorded results for 2 molecules are shown here.
MOLECULE: CC1COCCN1c1cc(-c2ccnn2C)c2ccnc(-c3ccn[nH]3)c2n1 (stereo not drawn) + Cc1cncc(-c2nc(NCCc3c[nH]c4ccccc34)c3ncn(C(C)C)c3n2)c1
TARGET DESC: 324938-238-R-J1-PDC complex spheroid growth, % test/control
viability, T/C, %: 5.11
--
MOLECULE: NS(=O)(=O)OCC1CC(n2ccc3c(NC4CCc5ccccc54)ncnc32)CC1O (stereo not drawn) + Cc1ccccc1N=Nc1ccc(NC(=O)c2ccnn2C)c(C)c1
TARGET DESC: 324938-238-R-J1-PDC complex spheroid growth, % test/control
viability, T/C, %: 48.4

-- ask Quick one: viability, T/C of Nc1ccccc1NC(=O)c1ccc(CNC(=O)OCc2cccnc2)cc1 + Cc1ccccc1N=Nc1ccc(NC(=O)c2ccnn2C)c(C)c1 ?
-- reply 57.7

###

Test system: 324938-238-R-J1-PDC complex spheroid growth, % test/control
PROCEDURE TEXT: Anticancer human tumor 324938-238-R-J1-PDC cell line growth inhibition [AhR];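 further: spheroids exposed to agents for seven days before viability read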
RUN PARAMETERS: second compound 3.16 µM; first compound 0.0316 µM; stronger effect = lower value
Hi there, I'd appreciate the recorded viability, T/C for every entry that follows.
One number for each entry, in %.

As a guide, the following entries are already answered.
COMPOUND: O=C(c1cc(Cc2n[nH]c(=O)c3ccccc23)ccc1F)N1CCN(C(=O)C2CC2)CC1 + Cc1ccccc1N=Nc1ccc(NC(=O)c2ccnn2C)c(C)c1
ENDPOINT: viability, T/C
UNITS TEXT: %
RESULT VALUE: 84.5

COMPOUND: CC1COCCN1c1cc(C2(S(C)(=N)=O)CC2)nc(-c2ccnc3[nH]ccc23)n1 (stereo not drawn) + Cc1cncc(-c2nc(NCCc3c[nH]c4ccccc34)c3ncn(C(C)C)c3n2)c1
ENDPOINT: viability, T/C
UNITS TEXT: %
RESULT VALUE: 80.5

-- ask Reported viability, T/C for CC1(C)CCC(CN2CCN(c3ccc(C(=O)NS(=O)(=O)c4ccc(NCC5CCOCC5)c([N+](=O)[O-])c4)c(Oc4cnc5[nH]ccc5c4)c3)CC2)=C(c2ccc(Cl)cc2)C1 + CC(CO)NC(=O)c1cc(-c2ccc(Cl)cc2)nn(-c2cnn(C)c2)c1=O : what is it?
-- reply 71.8
